Target: APOL1 G2 (Homo sapiens, UniProt O14791, DEL388-389)
Construct: expressed in transfected cells; host or cells: HEK293/T-REx APOL1 G2 clone #2, doxycycline-inducible
Assay: APOL1 G2 FLIPR calcium influx assay (HEK T-REx/GCaMP6f/APOL1 G2 K6.3 cells)
Assay type: cell-based
Settings: HEK293 clone expressing GCaMP6f, doxycycline-induced APOL1 G2; prevention of calcium influx; geometric mean of at least 2 assay runs
Simple rule here: AC50 less than 700 nM is 1, otherwise 0.

See these solved cases before continuing.
molecule: C[C@@H]1C[C@H](COc2ccc(S(=O)(=O)CCCS(C)(=O)=O)cc2)CN1C1CCc2c(C#N)cc(Cl)cc2C1 (stereo partly shown) [Compound 43]
class.label: 0
//
molecule: C[C@@H]1C[C@H](COc2ccc(S(=O)(=O)CCS(C)(=O)=O)cc2)CN1C1CCc2ccc(C#N)cc2C1 (single isomer, unassigned) [Compound 32]
class.label: 0
//
molecule: C[C@@H]1C[C@H](COc2ccc(S(=O)(=O)CCS(C)(=O)=O)cc2)CN1C1CCc2ccc(Cl)cc2C1 (stereo partly shown) [Compound 49]
class.label: 1
//
molecule: C[C@@H]1C[C@H](COc2ccc(S(C)(=O)=O)cc2)CN1C1CCc2c(Cl)cccc2C1 (single isomer, unassigned) [Compound 139]
class.label: 0
//
molecule: C[C@@H]1CN(CCc2cc(C#N)cc(C#N)c2)C[C@H]1COc1ccc(S(C)(=O)=O)nc1
class.label: 1

Request: Bench note: check whether C[C@@H]1C[C@H](COc2ccc(S(=O)(=O)CCCS(C)(=O)=O)cc2)CN1C1CCc2ccc(Cl)cc2C1 (single isomer, unassigned) [Compound 53] shows AC50 below 700 nM
Response: 0

Request: Bench note: check whether CS(=O)(=O)c1ccc(OCC2C[C@@H](CO)N(CCc3cccc(Cl)c3)C2)cc1 (single isomer, unassigned) [Compound 123] shows AC50 below 700 nM
Response: 1

Request: Bench note: check whether C[C@@H]1C[C@H](COc2ccc(S(=O)(=O)CCS(C)(=O)=O)cc2)CN1C1CCc2ccc(C#N)cc2C1 (single isomer, unassigned) [Compound 31] shows AC50 below 700 nM
Response: 0

Request: Bench note: check whether C[C@@H]1CN(C2CCc3ccc(Cl)cc3C2)C[C@H]1COc1ccc(S(C)(=O)=O)cc1 (single isomer, unassigned) [Compound 16] shows AC50 below 700 nM
Response: 0

Request: Bench note: check whether CS(=O)(=O)C1(c2ccc(OC[C@@H]3CN(CCc4cccc(Cl)c4)CCN3)cc2)COC1 shows AC50 below 700 nM
Response: 1

Request: Bench note: check whether C[C@@H]1CN(C(CO)Cc2cccc(Cl)c2)C[C@H]1COc1ccc(S(C)(=O)=O)cc1 (stereo partly shown) [Compound 115] shows AC50 below 700 nM
Response: 1

Request: Bench note: check whether C[C@@H]1C[C@H](COc2ccc(S(=O)(=O)CCO)cc2)CN1C1CCc2ccc(C#N)cc2C1 (single isomer, unassigned) [Compound 59] shows AC50 below 700 nM
Response: 0

====

Target: APOL1 G2 (Homo sapiens, UniProt O14791, DEL388-389)
Construct: expressed in transfected cells; host or cells: HEK293/T-REx APOL1 G2 clone #2, doxycycline-inducible
Test: APOL1 G2 FLIPR calcium influx assay (HEK T-REx/GCaMP6f/APOL1 G2 K6.3 cells)
Type: cell-based
Details: HEK293 clone expressing GCaMP6f, doxycycline-induced APOL1 G2; prevention of calcium influx; geometric mean of at least 2 assay runs
observable: AC50 (µM)
Respond numerically; units are µM and should not be typed.

molecule: CS(=O)(=O)c1ccc(OC[C@@H]2CN(CCc3cc(Cl)cc(C#N)c3)CCN2)cc1C(F)(F)F
test.result: 0.868

molecule: C[C@@H]1C[C@H](COc2ccc(S(C)(=O)=O)cc2)CN1C1CCc2c(C#N)cc(Cl)cc2C1 (single isomer, unassigned) [Compound 7]
test.result: 1.54

molecule: C[C@@H]1C[C@H](COc2ccc(S(C)(=O)=O)cc2)CN1C1CCc2c(C#N)cccc2C1 (single isomer, unassigned) [Compound 135]
test.result: 0.576

molecule: CC(C(O)c1cc(Cl)cc(C#N)c1)N1C[C@@H](COc2ccc(S(C)(=O)=O)cc2)[C@H](C)C1 (single isomer, unassigned) [Compound 103]
test.result: 0.905

molecule: CC(=O)N(C)CCS(=O)(=O)c1ccc(OC[C@H]2C[C@@H](C)N(CCc3cccc(C#N)c3)C2)cc1
test.result: 0.337

Notebook: Cc1cc(OC[C@@H]2CN(CCc3cccc(C#N)c3)C[C@H]2C)ccc1S(C)(=O)=O , AC50 read as 0.0946

====

Target: APOL1 G2 (Homo sapiens, UniProt O14791, DEL388-389)
Construct: expressed in transfected cells; host or cells: HEK293/T-REx APOL1 G2 clone #2, doxycycline-inducible
Assay: APOL1 G2 FLIPR calcium influx assay (HEK T-REx/GCaMP6f/APOL1 G2 K6.3 cells)
Format: cell-based
Conditions: HEK293 clone expressing GCaMP6f, doxycycline-induced APOL1 G2; prevention of calcium influx; geometric mean of at least 2 assay runs
Simple rule here: AC50 less than 600 nM is yes (1), otherwise no (0).

See these solved cases before continuing.
molecule: Cc1cc(OC[C@@H]2CN(CCc3cc(Cl)cc(C#N)c3)CCN2)ccc1S(C)(=O)=O
class.label: yes (1)
//
molecule: C[C@@H]1CN(CCc2cccc(C#N)c2)C[C@H]1COc1cnc(S(C)(=O)=O)cn1
class.label: no (0)
//
molecule: CC(C(O)c1cc(Cl)cc(C#N)c1)N1C[C@@H](COc2ccc(S(C)(=O)=O)cc2)[C@H](C)C1 (single isomer, unassigned) [Compound 100]
class.label: yes (1)
//
molecule: C[C@@H]1CN(CCc2cc(Cl)cc(C#N)c2)C[C@H]1COc1ccc(C2(S(C)(=O)=O)COC2)cc1
class.label: yes (1)
//
molecule: C[C@@H]1C[C@H](COc2ccc(S(=O)(=O)CCO)cc2)CN1C1CCc2c(C#N)cc(Cl)cc2C1 (single isomer, unassigned) [Compound 56]
class.label: no (0)

Request: Bench note: check whether C[C@@H]1CN(CC(O)c2cccc(Cl)c2)C[C@H]1COc1ccc(S(C)(=O)=O)cc1 (single isomer, unassigned) shows AC50 below 600 nM
Response: yes (1)

Request: Bench note: check whether CS(=O)(=O)c1ccc(OCC2C[C@@H](CO)N(CCc3cccc(Cl)c3)C2)cc1 (single isomer, unassigned) [Compound 124] shows AC50 below 600 nM
Response: no (0)

====

Molecular target: APOL1 G2 (Homo sapiens, UniProt O14791, DEL388-389)
Construct: expressed in transfected cells; host or cells: HEK293/T-REx APOL1 G2 clone #2, doxycycline-inducible
Sequence (O14791 with tags, fused parts or gaps DEL388-389): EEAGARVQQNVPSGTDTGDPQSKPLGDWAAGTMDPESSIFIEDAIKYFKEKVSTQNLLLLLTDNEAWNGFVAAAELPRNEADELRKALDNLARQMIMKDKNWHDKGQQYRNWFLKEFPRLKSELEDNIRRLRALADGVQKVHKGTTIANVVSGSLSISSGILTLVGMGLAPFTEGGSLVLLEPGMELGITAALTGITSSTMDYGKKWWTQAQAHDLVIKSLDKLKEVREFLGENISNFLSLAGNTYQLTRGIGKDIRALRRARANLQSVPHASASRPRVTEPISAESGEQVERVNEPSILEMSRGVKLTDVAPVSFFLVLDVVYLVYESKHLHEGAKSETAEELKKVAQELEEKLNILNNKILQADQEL
Test: APOL1 G2 FLIPR calcium influx assay (HEK T-REx/GCaMP6f/APOL1 G2 K6.3 cells)
Format: cell-based
Details: HEK293 clone expressing GCaMP6f, doxycycline-induced APOL1 G2; prevention of calcium influx; geometric mean of at least 2 assay runs
# AC50 listing for each entry below
Respond numerically; units are nM and should not be typed.

Illustrative cases are given below, each with its answer.
compound: CC(Cc1cc(Cl)cc(C#N)c1)N1C[C@@H](COc2ccc(S(C)(=O)=O)cc2)[C@H](C)C1 (single isomer, unassigned) [Compound 18]
AC50 [nM]: 412
--
compound: C[C@@H]1C[C@H](COc2ccc(S(C)(=O)=O)cc2)CN1C1Cc2ccc(Cl)cc2C1 (single isomer, unassigned) [Compound 2]
AC50 [nM]: 1030
--
compound: C[C@@H]1C[C@H](COc2ccc(S(=O)(=O)CCS(C)(=O)=O)cc2)CN1C1CCc2c(C#N)cc(Cl)cc2C1 (single isomer, unassigned) [Compound 47]
AC50 [nM]: 926

Notebook: C[C@@H]1C[C@H](COc2ccc(S(C)(=O)=O)cc2)CN1C1Cc2ccc(Cl)cc2C1 (single isomer, unassigned) [Compound 4] , AC50 read as 1140

Notebook: Cc1cc(OC[C@H]2C[C@@H](C)N(CCc3cccc(C#N)c3)C2)cnc1S(C)(=O)=O (single isomer, unassigned) , AC50 read as 185
